# Tested on: Bacillus 1 (Bacillus foraminis)
# assay.explanation: relative growth (AUC of 72 h growth curve relative to DMSO control, dAUC) (ratio); higher = more growth (less inhibition), active = hit call of the paper
# applied.conditions: 20 µM
If the reported relative growth equals or exceeds 1, assign 1. If not, assign 0.

Solved entries (count: 3):
>  <compound>
CCCSP(=O)(OCC)Oc1ccc(Br)cc1Cl (centres undefined)

>  <assigned.category>
1

$$$$
>  <compound>
C[N+]1(C)CCCCC1

>  <assigned.category>
1

$$$$
>  <compound>
Oc1ccc(Cl)cc1Cc1cc(Cl)ccc1O

>  <assigned.category>
0

$$$$

Given the entry CON(C)C(=O)Nc1ccc(Cl)c(Cl)c1 , answer whether its relative growth meets or surpasses 1.
1

Given the entry CC[C@H]1CCC[C@H](O[C@H]2CC[C@H](N(C)C)[C@@H](C)O2)[C@@H](C)C(=O)C2=C[C@@H]3[C@@H](C=C(C)[C@@H]4C[C@@H](O[C@@H]5O[C@@H](C)[C@H](OC)[C@@H](OC)[C@H]5OC)C[C@@H]34)[C@@H]2CC(=O)O1.CC[C@H]1CCC[C@H](O[C@H]2CC[C@H](N(C)C)[C@@H](C)O2)[C@@H](C)C(=O)C2=C[C@H]3[C@@H]4C[C@H](O[C@@H]5O[C@@H](C)[C@H](OC)[C@@H](OC)[C@H]5OC)C[C@H]4C=C[C@H]3C2CC(=O)O1 , answer whether its relative growth meets or surpasses 1.
1

Given the entry O=[N+]([O-])/N=C1\NCCN1Cc1ccc(Cl)nc1 , answer whether its relative growth meets or surpasses 1.
1
